# runDescription: Cytotoxicity activity against human HepG2 cells assessed by CellTiter-Glo luminescent cell viability assay.
# Assay type: toxicity, cell-based
# Set-up: assay stage confirmatory assay, source tissue liver
# conditionContext: HepG2 cells, read-out: IC50 relative
Counter-ions that a name gives are not always drawn. Calls of active or inactive are those of the source. The rule behind the calls is not given here.
Answer each item with its documented CC50.

So, COc1ccc(NS(=O)(=O)c2ccc3onc(C(=O)N4CCCC4)c3c2)cc1OC ? Its CC50 was 0.6 µM (active)

Lab note: COc1ccc(Cc2nccc3cc(OC)c(OC)cc23)cc1OC gave CC50 of 12.8 µM (active)

// field: CC50; key: CCN(CC)C(=O)c1sc2[nH]c(-c3ccccn3)nc(=O)c2c1C ; value = 6 µM (active)

// recorded CC50 for CCNC(=O)C[C@@H]1N=C(c2ccc(Cl)cc2)c2cc(OC)ccc2-n2c(C)nnc21 : 2.6 µM (active)

// CC50 lookup, molecule = CCc1nccn1[C@H]1CCCN(CCOc2ccc(OC)cc2)C1 , result: 4.1 µM (active)

Looking up CCCCOc1ccc(C(=O)CCN2CCCCC2)cc1 [DYCLONINE HYDROCHLORIDE] , I see its CC50 listed as 9.9 µM (active)

// field: CC50; key: O=C(CCN1CCCCC1)c1cc2ccccc2o1 ; value = 21.1 µM (inactive)

Measured CC50, COc1ccc(-c2c[nH]c3nccc(-c4ccsc4)c23)c(OC)c1 : 7.9 µM (active)

For record O=c1[nH]c(Cc2ccc(-n3cccn3)cc2)nc2ccccc12 the listed CC50 is 2.1 µM (active)

For this molecule ( Cc1ccc(Sc2ccccc2N2CCNCC2)c(C)c1 ), measured CC50 is 4.1 µM (active)

Recorded result, CN1CCN(S(=O)(=O)c2cccc(C(=O)Nc3nc(-c4ccccc4)cs3)c2)CC1 , CC50: 12.5 µM (active)

Measured CC50 of Cc1cc(N)n(S(=O)(=O)c2oc(-c3ccccc3)nc2C#N)n1 : 7.6 µM (active)

Short answer for CCn1c(-c2nonc2N)nc2cnc(Oc3cccc(NC(=O)c4ccc(OCCN5CCOCC5)cc4)c3)cc21 [GSK-269962A] : CC50 was 3 µM (active)

So, Cc1ccc(NC(=O)c2ccc(CN3CC[C@H](N(C)C)C3)c(C(F)(F)F)c2)cc1Nc1nccc(-c2cncnc2)n1 ? Its CC50 was 0.9 µM (active)

Notebook: C=CC(=O)Nc1cccc(Nc2nc(Nc3ccc(OCCOC)cc3)ncc2F)c1 , CC50 read as 1.3 µM (active)

// CC50 lookup, molecule = CCOc1ccc(S(=O)(=O)Nc2ccc3c(c2)N(C(C)=O)CCC3)cc1 , result: 6.4 µM (active)

CC50 for CC[C@@H]1C(=O)N(C)c2cnc(Nc3ccc(C(=O)N[C@H]4CC[C@H](N5CCN(CC6CC6)CC5)CC4)cc3OC)nc2N1C(C)C is 0.9 µM (active)

Given item CC(C)(C)n1ncc(N2CCN(c3ccc(C#N)cc3F)CC2)c(Cl)c1=O , the value recorded as its CC50 is 22.7 µM (active)

Recorded result, NC(=O)C(c1ccccc1)(c1ccccc1)[C@@H]1CCN(CCc2ccc3c(c2)CCO3)C1 [DARIFENACIN HYDROBROMIDE] , CC50: 11.1 µM (active)
